assay: qHTS of pediatric cancer cell lines to identify multiple opportunities for drug repurposing: Primary screen for Rh18 cells (AID 1347102); details: Rh18 rhabdomyosarcoma viability, CellTiter-Glo luminescence, 48 h; series mostly up to 46 µM; also: nearly all actives have a fitted effect of over 65% in size
Records with an inconclusive call do not appear. The source made the active and inactive calls. Calls follow the shape of the dose curve; as a rule, active = well fitted cell-killing curve with a large enough effect; inconclusive = small, poorly fitted or top-dose-only effect; inactive = flat fitted curve, though single readings scatter.
Permitted responses: active, inactive

Example entries begin here.
# compound, discrete label
records = [
    ("COc1ccc(-c2ccc3c(N4CCOC[C@H]4C)nc(N4CCOC[C@H]4C)nc3n2)cc1CO", "active"),
    ("O=C(O)CCc1ccc(NCc2cccc(Oc3ccccc3)c2)cc1", "inactive"),
    ("CO[C@@H]1[C@H](N(C)C(=O)c2ccccc2)C[C@H]2O[C@]1(C)n1c3ccccc3c3c4c(c5c6ccccc6n2c5c31)C(=O)NC4", "active"),
]

Given "Nc1ccc(S(=O)(=O)Nc2ccnn2-c2ccccc2)cc1" , state the outcome it received in this test.
inactive

Please give the result for "CN(C)c1ccc(Nc2nc(N)n(C(=O)c3c(F)cccc3F)n2)cc1" too.
inactive

Please give the result for OC(CN1CCC(Cc2ccc(F)cc2)CC1)c1ccc(Cl)cc1 (centres undefined) too.
inactive

Please give the result for CCN(CC)CCCC(C)Nc1ccnc2cc(Cl)ccc12 (centres undefined) too.
inactive

Please give the result for "NC(=O)c1cnccn1" too.
inactive

---

test: qHTS Assay for Identification of Small Molecule Antagonists for NFkB Signaling Pathway. (AID 624479); settings: NFkB pathway reporter cell assay, antagonist mode; series mostly up to 38.3 µM;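 also: pathway stimulated with TNF alpha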
Active and inactive are the calls of the source. The call rests on the fitted dose curve.
Permitted responses: active, inactive

# compound, discrete label
data = [
    ("COCC(=O)NCC=Cc1ccc2ncnc(Nc3ccc(Oc4ccc(C)nc4)c(C)c3)c2c1", "active"),
]

Given "O=C1[C@H](Cc2ccc(O)cc2)N2C(=O)CCN(C(=O)NCc3ccccc3)[C@H]2CN1Cc1cccc2ccccc12" , state the outcome it received in this test.
inactive

Please give the result for OC(CN1CCC(Cc2ccc(F)cc2)CC1)c1ccc(Cl)cc1 (stereo not drawn) too.
inactive

Please give the result for COc1ccc(COc2cc3oc(=O)c4cc(C(C)O)ccc4c3cc2OC)cc1 (stereo not drawn) too.
inactive

Please give the result for "Cc1ccc2c(c1)C(=O)[C@@]1(O)CCN(c3ccccc3)C1=N2" too.
inactive

Please give the result for "OC[C@H](Cc1ccccc1)Nc1nc(Oc2ccc3c(c2)CCC3)nc2c1ncn2Cc1ccc(-c2ccccc2)cc1" too.
inactive

---

assay: Quantitative High-Throughput drug screen in 47 multiple myeloma cell lines against the NCATS MIPE library collection: OCIMY1_PLB cell viability assay (AID 1918979); conditions: OCI-MY1 myeloma viability, CellTiter-Glo ATP, 48 h; series mostly up to 45.8 µM; also: nearly all actives have a fitted effect of over 35% in size
Results filed as inconclusive are left out. Active and inactive are the calls of the source. The call rests on the fitted dose curve; in most records, active means well fitted cell-killing curve with a large enough effect; inconclusive means small, poorly fitted or top-dose-only effect, or effect the other way; inactive means no such curve, though single readings can be large or run the other way.
Permitted responses: active, inactive

# molecule, discrete label
rows = [
    ("Cc1c(CCOc2ccc(C(=O)O)cc2)c2cc(Cl)ccc2n1C(c1ccccc1)c1ccccc1", "inactive"),
    ("NC(=O)c1ccc(-c2nc(-c3ccc4c(c3)OCCO4)c(-c3ccccn3)[nH]2)cc1", "inactive"),
    ("Cc1ccccc1C(OCCN(C)C)c1ccccc1 (stereo unspecified)", "inactive"),
    ("Nc1nccc(-c2ccc3noc(-c4ccc(Cl)cc4)c3c2)n1", "inactive"),
    ("O=C(NOC[C@H](O)CO)c1ccc(F)c(F)c1Nc1ccc(I)cc1F", "inactive"),
    ("c1ccc([C@H]2CN3CCSC3=N2)cc1", "inactive"),
    ("CC(C[N+](C)(C)C)OC(N)=O (stereo unspecified)", "inactive"),
    ("COc1c(Cl)cc2c([nH]c3cnccc32)c1NC(=O)c1cccnc1C", "inactive"),
]

Given "Cc1[nH]c(=O)c(C#N)cc1-c1ccncc1" , state the outcome it received in this test.
inactive

Please give the result for CC(=O)NC(C)c1ccc(Oc2ccc(OC(C)C)cc2)cc1 (stereo unspecified) too.
active

Please give the result for "NC(=O)c1ccc(-c2nc(-c3ccc4c(c3)OCO4)c(-c3ccccn3)[nH]2)cc1" too.
inactive
